- Tested on: HCC-2998 colon
- methodDescription: NCI-60 one-dose screen, 48 h
- conditionContext: 10 µM unless noted
This is part of a sample that, as a whole, favours compounds with a hit. Of some 83,000 tested, about 20% had one in any assay. Active and inactive are the calls of the source. How the source made its calls: active means growth percent below 10; inactive means the rest.
Outcome codes: t for active, f for inactive

• CCOC(=O)c1cncn1C(C)c1ccccc1 (centres undefined) = f
• N[C@@H](CCC(=O)CCl)C(=O)O = f
• CC[C@H](C)[C@H](NC(=O)[C@H]1CCCCN1C)C(=O)N(C)[C@H](C(=O)NC12CC(C(=O)N[C@@H](Cc3ccccc3)C[C@H](C)C(=O)OC)(C1)C2)C(C)C = f
• c1ccc(CCN2CCCCC2)nc1 = f
• CC[C@H](C)[C@H](NC(=O)C12CC(NC)(C1)C2)C(=O)N(C)[C@H](C[C@@H](OC(C)=O)c1nc(C(=O)N[C@@H](Cc2ccccc2)C[C@H](C)C(=O)OC)cs1)C(C)C = t
• C#COc1cccc(Nc2ncnc3cc(NC(=O)CF)ccc23)c1 = f
• Cc1cc(N(CCCl)CCCl)ccc1C=Nc1ccc(-c2csc(-c3ccccc3)n2)cc1 = f
• Nc1c(Cl)c(Cl)nc(C(=O)O)c1Cl = f
• N#CC(C#N)=C(C#N)C#N = f
• CC(=O)OC1CC2(O)C(CCC3(C)C(c4ccc(=O)oc4)CCC32O)C2(C)CCC(OC3OC(CO)C(O)C(O)C3O)C=C12 (centres undefined) = t
• C[C@]12CCc3sc(Nc4ccc(F)cc4F)nc3C1=CC[C@@H]1[C@@H]2CC[C@]2(C)C(=O)CC[C@@H]12 = f
• CC1(C)C=Cc2c(ccc3c2[N+]([O-])=C2C3=C[C@@]34NC(=O)[C@]5(CCCN5C3=O)C[C@@H]4C2(C)C)O1 = f
• O=C(Cc1ccccc1)c1ccccc1 = f
• C/C=C(/C)C(=O)O[C@H]1CC[C@@]2(C)[C@@H]3CC[C@H]4[C@]5(O)C[C@H](O)[C@@]6(O)[C@@H](CN7C[C@@H](C)CC[C@H]7[C@@]6(C)O)[C@]5(O)C[C@@]42O[C@@]13O = f
• CCN1C(=O)NC(=O)C(C)(N2C(=O)c3c(F)c(F)c(F)c(F)c3C2=O)C1=O (centres undefined) = f
• S=P(SP(=S)(c1ccccc1)c1ccccc1)(c1ccccc1)c1ccccc1 = f
• CC(C)CCC1C(=O)NC(=O)NC1=O = f
• CC[C@H](C)[C@H](NC(=O)[C@H]1CCCCN1C)C(=O)N(C)[C@H](C[C@@H](OC(C)=O)c1nc(C(=O)NC23C4C5C2C2C3C4C52C(=O)OC)cs1)C(C)C (some centres undefined) = t
• CCC(=O)C(CC(C)[N+](C)(C)C)(c1ccccc1)c1ccccc1 (centres undefined) = f
